Data origin, for the record: patent US20250171423A1

target: Human complement C1s enzyme (Homo sapiens); construct: purified from human serum, Complement Technology, Inc; purchased Complement Technology, Inc; host or cells: human serum; experiment: Human C1s Enzyme Assay; format: biochemical; details: human C1s 1.16 nM, 5 min preincubation, substrate Z-L-Lys-SBzl 100 μM, A405; read-out: C1s Protease Activity
Sequence (P09871 438-688 limits assumed): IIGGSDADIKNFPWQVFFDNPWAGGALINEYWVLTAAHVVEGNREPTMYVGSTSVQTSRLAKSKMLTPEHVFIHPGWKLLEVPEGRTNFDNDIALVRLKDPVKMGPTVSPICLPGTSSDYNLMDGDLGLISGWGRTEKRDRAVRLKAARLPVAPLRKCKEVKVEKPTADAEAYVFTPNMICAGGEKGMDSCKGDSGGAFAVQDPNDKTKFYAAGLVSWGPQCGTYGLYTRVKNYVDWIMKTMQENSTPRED
Sequence (P09871 16-437 partner limits assumed): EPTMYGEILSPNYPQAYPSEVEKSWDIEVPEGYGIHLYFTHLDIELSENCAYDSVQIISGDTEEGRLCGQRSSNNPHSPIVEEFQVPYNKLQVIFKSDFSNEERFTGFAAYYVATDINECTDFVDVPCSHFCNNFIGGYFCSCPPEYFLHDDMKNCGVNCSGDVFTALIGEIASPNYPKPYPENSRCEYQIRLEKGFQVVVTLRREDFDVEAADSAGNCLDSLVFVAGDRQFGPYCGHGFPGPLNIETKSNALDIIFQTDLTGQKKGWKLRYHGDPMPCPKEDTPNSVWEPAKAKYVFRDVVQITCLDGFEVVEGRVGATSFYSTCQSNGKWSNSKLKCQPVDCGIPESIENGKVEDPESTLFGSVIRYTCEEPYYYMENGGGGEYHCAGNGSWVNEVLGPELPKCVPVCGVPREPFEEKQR
pIC50: −log10 of the molar value.
Kindly state pIC50 for each of the entries shown.

Return reported pIC50 values for all items listed beneath this line.
1. N=C(N)c1csc(NC(=O)C[C@@H]2CCCN2C(=O)CNC(=O)c2ccc(Oc3ccccc3)cc2)c1
2. C[C@@]12C[C@@H]1N(C(=O)CNC(=O)c1ccc(Oc3ccccn3)cc1)[C@H](C(=O)NCc1cc(C(=N)N)cs1)C2

Result:
["< 6.00", "> 7.00"]

Return reported pIC50 values for all items listed beneath this line.
1. N=C(N)c1csc(CNC(=O)[C@@H]2C[C@](F)(CO)CN2C(=O)CNC(=O)CCCOc2ccccc2)c1
2. N=C(N)c1csc(CNC(=O)[C@@H]2CC(OC(F)(F)F)CN2C(=O)CNC(=O)c2ccc(Oc3ccccc3)cc2)c1 (stereo in doubt)
3. N=C(N)c1csc(CNC(=O)[C@@H]2C[C@@]3(CN2C(=O)CNC(=O)c2ccc(Oc4ccccc4)cc2)CC3(F)F)c1
4. CO[C@H]1[C@@H](C(=O)NCc2cc(C(=N)N)cs2)N(C(=O)CNC(=O)CCCOc2ccccc2)C[C@@H]1F
5. CC(=O)ONC(=N)c1csc(CNC(=O)[C@@H]2C[C@]3(C)C[C@@H]3N2C(=O)CNC(=O)c2ccc(Oc3ccccc3)cc2)c1

Result:
["> 7.00", "> 7.00", "> 7.00", "6.00 to 7.00", "6.00 to 7.00"]

Return reported pIC50 values for all items listed beneath this line.
1. C[C@@]12C[C@@H]1N(C(=O)CNC(=O)c1ccc(Oc3ccccc3)cc1)[C@H](C(=O)NCc1ccc(C(=N)N)cn1)C2
2. C[C@@H](NC(=O)[C@@H]1C[C@]2(C)C[C@@H]2N1C(=O)CNC(=O)c1ccc(Oc2ccccc2)cc1)c1cc(-c2ncc[nH]2)cs1

Result:
1: 6.00 to 7.00; 2: > 7.00

Return reported pIC50 values for all items listed beneath this line.
1. C[C@@]12C[C@@H]1N(C(=O)CN1CCc3cc(Oc4ccccc4)ccc3C1=O)[C@H](C(=O)NCc1cc(C(=N)N)cs1)C2
2. N=C(N)c1ccc(CNC(=O)[C@@H]2CC3(CN2C(=O)CNC(=O)c2ccc(Oc4ccccc4)cc2)OCCO3)cn1
3. C[C@@H](NC(=O)[C@@H]1C[C@]2(COCC(=O)O)C[C@@H]2N1C(=O)CNC(=O)CCCOc1ccccc1)c1cc(C(=N)N)cs1

Result:
["> 7.00", "> 7.00", "> 7.00"]

Task: What measured pIC50 is associated with N=C(N)c1csc([C@@H](NC(=O)[C@@H]2C[C@@H](OC(F)F)CN2C(=O)CNC(=O)c2ccc(Oc3ccccc3)cc2)C(N)=O)c1 (relative stereo) on Human complement C1s enzyme (Homo sapiens)?
Result: < 6.00
